- tested.target: KOR (Homo sapiens)
- Sequence (P41145 whole entry): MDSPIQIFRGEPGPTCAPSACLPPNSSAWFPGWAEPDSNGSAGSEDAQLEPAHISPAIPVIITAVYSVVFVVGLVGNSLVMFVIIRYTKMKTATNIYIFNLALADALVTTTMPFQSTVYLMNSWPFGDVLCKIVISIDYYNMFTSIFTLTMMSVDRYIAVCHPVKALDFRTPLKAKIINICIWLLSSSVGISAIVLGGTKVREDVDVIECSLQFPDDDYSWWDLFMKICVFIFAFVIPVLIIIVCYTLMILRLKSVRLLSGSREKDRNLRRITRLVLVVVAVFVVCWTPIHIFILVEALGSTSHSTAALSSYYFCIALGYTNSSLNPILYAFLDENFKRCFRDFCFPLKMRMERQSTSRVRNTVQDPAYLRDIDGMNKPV
- protocol.summary: KOR1 DISCOVERX β-Arrestin […] assay, antagonist mode (KOR DRX)
- Assay type: cell-based
- test.conditions: antagonist; average; read-out: Potency, Target KOR DRX
quantity.kind: IC50

Here are 10 compounds together with their reported answers.
O=C(Cn1c(=O)c2cccn2c2cccnc21)NCCCN1CCCCC1 [Compound 1{21}] :: > 20 µM
O=C(Cn1c(=O)c2cccn2c2cccnc21)NCCCN1CCN(Cc2ccccc2)CC1 [Compound 1{23}] :: > 20 µM
O=C(Cn1c(=O)c2cccn2c2cccnc21)NCCCN1CCOCC1 [Compound 1{19}] :: > 20 µM
O=C(Cn1c(=O)c2cccn2c2cc(Br)cnc21)NCCCN1CCN(c2ccc(Cl)cc2)CC1 [Compound 1{15}] :: > 20 µM
CN1CCN(CCCNC(=O)Cn2c(=O)c3cccn3c3cccnc32)CC1 [Compound 1{20}] :: > 20 µM
Cc1ccc(Cl)cc1N1CCN(CCCNC(=O)Cn2c(=O)c3cccn3c3cccnc32)CC1 [1{24}] :: > 20 µM
O=C(Cn1c(=O)c2cccn2c2cccnc21)NCCCN1CCN(c2ccccc2)CC1 [Compound 1{13}] :: > 20 µM
COc1ccc(N2CCN(CCCNC(=O)Cn3c(=O)c4cccn4c4c(C)ccnc43)CC2)c(OC)c1 [1{4}] :: 0.19 µM
Cc1ccnc2c1n1cccc1c(=O)n2CC(=O)NCCCN1CCN(c2ccccc2)CC1 [1{8}] :: 4.95 µM
Cc1ccc(N2CCN(CCCNC(=O)Cn3c(=O)c4cccn4c4c(C)ccnc43)CC2)cc1 [1{7}] :: 0.88 µM

Next, consider the following compound.
[Q] Need IC50 of Cc1ccnc2c1n1cccc1c(=O)n2CC(=O)NCCCN1CCN(c2ccc(Cl)cc2)CC1 [Compound 1{6}] , thanks.
[A] 0.69 µM
